Test: in vivo
Settings: male, rat, po, 6 mg/kg
READOUT TYPE: Tmax (min)
One number for each entry, in min.

Data request: If you can, please state the reported Tmax value of COC(=O)c1nc(C(F)(F)F)n2c1CN(C(=O)C[C@H](N)Cc1cc(F)c(F)cc1F)CC2 .
Data returned: 30

###

Experiment: in vivo
Conditions: male, rat, po, 6 mg/kg
READOUT TYPE: MRT

Data request: If you can, please state the reported MRT value of COC(=O)c1nc(C(F)(F)F)n2c1CN(C(=O)C[C@H](N)Cc1cc(F)c(F)cc1F)CC2 [Compound A] .
Data returned: 1.96 h

###

Assay: in vivo
Conditions: male, rat, po, 6 mg/kg
READOUT TYPE: AUC(0-inf)
Form field: result (number plus unit)

Data request: If you can, please state the reported AUC(0-inf) value of COC(=O)c1nc(C(F)(F)F)n2c1CN(C(=O)C[C@H](N)Cc1cc(F)c(F)cc1F)CC2 [Compound A] .
Data returned: 425 ng·h/mL

###

Assay: in vivo
Details: male, rat, po, 6 mg/kg
READOUT TYPE: AUC0-t (ng·h/mL)
Answers are plain numbers, in ng·h/mL.

Data request: If you can, please state the reported AUC0-t value of COC(=O)c1nc(C(F)(F)F)n2c1CN(C(=O)C[C@H](N)Cc1cc(F)c(F)cc1F)CC2 .
Data returned: 409

###

Assay: in vivo
Conditions: male, rat, po, 6 mg/kg
READOUT TYPE: CL/F (mL/min/kg)
Give bare numbers, in mL/min/kg.

Data request: If you can, please state the reported CL/F value of COC(=O)c1nc(C(F)(F)F)n2c1CN(C(=O)C[C@H](N)Cc1cc(F)c(F)cc1F)CC2 .
Data returned: 545

###

Test: in vivo
Settings: male, rat, po, 6 mg/kg
READOUT TYPE: Cmax

Data request: If you can, please state the reported Cmax value of COC(=O)c1nc(C(F)(F)F)n2c1CN(C(=O)C[C@H](N)Cc1cc(F)c(F)cc1F)CC2 [Compound A] .
Data returned: 242 ng/mL
